# credit: patent US20170334973A1

# TARGET_DESC: EBOV GPddmuc (Ebola virus (EBOV), UniProt Q05320 33-650)
# TEST_PROTOCOL: ELISA
MEASURED_QUANTITY: EC50 (pM)
Answers are plain numbers, in pM.

Dear reader, for each entry below, please note its EC50.
1. FVM25 (antibody, V domains shown) VH: EVQLVHSGAEVKRPGESLTISCKTSGYTFTDYWIAWVRQMPGKGLEWMASIYPDDSDTRYNPSFQGHVTISADKSISTTYLQWSSLRASDTATYYCVKGSETWGQGVLVTVSS VL: QLVLTQPASLSASPGTSASLTCTFSGGINVAGYNILWYQQKPGSPPRFLLRYKSDSDNVQGSGVPSHFSGSKDASTNTGILRISGLQSEDEADYYCAIGHSSGWVFGGGTRLTVL
2. FVM26 (antibody, V domains shown) VH: QVQLVQSGAEVKRPGESLRISCKTSGYTFTDYWIAWVRQMPGKGLEWMGSIYPGDSETKYNPSFQGHVTISADKSVTTTYLKWSRLKASDTATYYCVKGSETWGQGVLVTVSS VL: QPVLTQPASLSASPGASASLTCTFSGGINVAGYNILWYQQKAGSPPRYLLRYKSDSTKDQGSGVPSRFSGSKDASANTGILRISGLQSEDEADYYCAIGHSSGWIFGGGTRLTVL
3. FVM13 (antibody, V domains shown) VH: EVQLVQSGAEVKRPGESLKISCKTSGYTFTSSWISWVRQMPGKGLEWLGSIYPGDSDTRYNPSFQGHVTISADTSIITTHLQWSSLKASDTATYYCVKGSETWGQGVLVTVSS VL: KPMLTQPTSLSASPGASASLTCTFSGGINVAGYNILWYQQKAGSPPRYLLRYKSDSTKDQGSGVPSRFSGSKDASANTGILRISGLQSEDEADYYCAIGHSSGWIFGGGTRLTVL

1: 120; 2: 100; 3: 62
